Data provenance: patent US20190106487A1

- Tested Target: T1, human IL-1RAcP on 293T/17-FR cells (human, UniProt Q9NPH3 21-570)
- T1 sequence (looked up): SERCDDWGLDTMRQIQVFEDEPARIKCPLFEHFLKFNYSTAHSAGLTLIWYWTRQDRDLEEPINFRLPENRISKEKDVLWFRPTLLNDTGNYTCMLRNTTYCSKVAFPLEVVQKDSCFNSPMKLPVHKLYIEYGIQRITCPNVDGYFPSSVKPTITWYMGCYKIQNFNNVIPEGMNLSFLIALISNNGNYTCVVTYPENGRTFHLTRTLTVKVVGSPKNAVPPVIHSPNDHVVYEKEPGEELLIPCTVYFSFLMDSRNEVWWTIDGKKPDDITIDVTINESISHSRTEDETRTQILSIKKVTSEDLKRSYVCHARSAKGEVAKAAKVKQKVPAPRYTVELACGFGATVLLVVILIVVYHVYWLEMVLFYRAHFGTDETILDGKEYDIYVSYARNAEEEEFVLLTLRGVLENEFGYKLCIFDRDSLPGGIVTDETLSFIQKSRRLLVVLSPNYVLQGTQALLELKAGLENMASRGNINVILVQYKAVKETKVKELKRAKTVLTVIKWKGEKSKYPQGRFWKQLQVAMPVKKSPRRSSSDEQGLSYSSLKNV
- Procedure Details: cell-based or functional assay
Measurement Label: primary supernatant functional assay (% inh.), NF-kB luciferase reporter

Binder	Reported Value
P013.S.01.B.H04 (antibody, V domains shown, rabbit monoclonal antibody; also called P013.A.00014.G05) VH: QSVEESGGRLVTPGTPLTLTCTVSGFSLDSYAMGWVRQAPGKGLEWIGIINSYGSIYYASWAKGRFTISKTSTTVDLKMTSLTTEDTATYFCARSAYSNNGDRLHLWGQGTLVTVSS VL: DIVMTQTPSPVSGAVGGTVTIKCQASEDIYSNLAWYQQKPGQPPKLLIYYVSTLESGVPSRFKGSRSGTDYTLTISDLESADAATYYCQCTEGGSGSDYTFGGGTEVVVK	35%
P013.S.02.B.F05 (antibody, V domains shown, rabbit monoclonal antibody; also called P013.A.00109.B04) VH: RSLEESGGDLVKPGTSLTLTCTASGFSFSGNYYMCWVRQAPGKGLEWIACIVVGSGGNTYYAGWAKRRFTISKTSSTTVTLQMTSLTAADTATYFCASGSYDDYGDYWYFTLWGQGTLVTVSS VL: AIDMTQTPSPASAGVGDTVTINCQASENIYNFLAWYQQKPGHSPKLLIYVASKLASGVPSRFKGSGSGTQFTLTISDVQSDDAATYYCQQTYRYNDGDTAFGGGTEVVVK	40%
P013.S.02.B.C03 (antibody, V domains shown, rabbit monoclonal antibody; also called P013.A.00085.G07) VH: QSLEESGGRLVTPGTPLTLTCTVSGIDLSSYAMGWVRQAPGKGLEYIGIISNSGTTYYASWAKGRFTISKTSSTTVDLKMTSPTTEDTATYFCARDRYANTHGIFSLWGQGTLVTVSS VL: DIVMTQTPASVSAPVGGTVTINCQASESIYSDLAWYQQKPGQPPKLLISFVATLESGVPSRFKGSGSGTEFTLTISDLESADAATYYCQCTYGGSGSGNGAAFGGGTEVVVK	29%
